- Tested on: MAGI cells
- TEST CONDITIONS: human
Kindly supply the reported CC50 values for the records listed here.

Query: Item under review: `O=C(O)c1cccc(Cc2ccc3cc[nH]c3c2)c1` . Reported CC50?
Response: > 100 µM

Query: Item under review: `COc1cccc(-n2ccc3ccc(Cc4cccc(C(=O)O)c4)cc32)c1` . Reported CC50?
Response: > 100 µM

Query: Item under review: `O=C(O)c1cccc(Cc2ccc3ccn(Cn4ccc5ccc(Cc6cccc(C(=O)O)c6)cc54)c3c2)c1` . Reported CC50?
Response: > 100 µM

* * *

- System: Pseudovirus HIV-1 BAL (CCR5-tropic strain)
- TEST DESCRIPTION: microbe, parasite or virus in culture
- TEST CONDITIONS: MAGI, 5% Serum
Kindly supply the reported IC50 values for the records listed here.
Write the answer as a number in µM, unit excluded.

Query: Lookup: IC50 / Pseudovirus HIV-1 BAL (CCR5-tropic strain) / COc1ccc(COc2cccc(-c3ccc4ccn(Cc5cccc(C(=O)OCc6cccc(C(=O)O)c6)c5)c4c3)c2)cc1 [Compound I-22]
Response: 18.7

Query: Lookup: IC50 / Pseudovirus HIV-1 BAL (CCR5-tropic strain) / COc1cccc(-c2ccc3ccn(Cc4cccc(C(=O)O)c4)c3c2)c1 [Compound I-11]
Response: 36.6

Query: Lookup: IC50 / Pseudovirus HIV-1 BAL (CCR5-tropic strain) / O=C(O)c1cccc(Cc2ccc3ccn(Cn4ccc5ccc(Cc6cccc(C(=O)O)c6)cc54)c3c2)c1 [Compound I-5]
Response: 49.6

Query: Lookup: IC50 / Pseudovirus HIV-1 BAL (CCR5-tropic strain) / O=C(O)c1cccc(Cc2ccc3cc[nH]c3c2)c1 [Compound I-1, 3-((1H-indol-6-yl)methyl)benzoic acid]
Response: 34.8

Query: Lookup: IC50 / Pseudovirus HIV-1 BAL (CCR5-tropic strain) / COc1cccc(-n2ccc3ccc(Cc4cccc(C(=O)O)c4)cc32)c1 [Compound I-7]
Response: 34
